Test system: NCI-H2009
EXPERIMENT_NOTES: Cytotoxicity against human NCI-H2009 cells measured after 8 days
Type: functional, cell-based
RUN_PARAMETERS: NCI-H2009, 192 h
pIC50: −log10 of the molar value.
METRIC_NAME: pIC50

smiles_repr=C/C=C/Cn1cc(-c2ccc(C(=O)N3CCOCC3)cc2)c2cc[nH]c2c1=O study_system=NCI-H2009 number=4.70
smiles_repr=C/C=C/Cn1cc(-c2cc(OC)c(C(=O)N3CCOCC3)cc2OC)c2cc(C)[nH]c2c1=O study_system=NCI-H2009 number=5.70
smiles_repr=C/C=C/Cn1cc(-c2ccc(C(C)(C)O)cc2OC)c2cc[nH]c2c1=O study_system=NCI-H2009 number=4.70
